target: Amine oxidase [flavin-containing] B (Homo sapiens); assay: Inhibition of recombinant human MAO-B using kynuramine as substrate incubated for 20 mins by fluorescence spectrophotometric assay
Sequence (P27338 whole entry): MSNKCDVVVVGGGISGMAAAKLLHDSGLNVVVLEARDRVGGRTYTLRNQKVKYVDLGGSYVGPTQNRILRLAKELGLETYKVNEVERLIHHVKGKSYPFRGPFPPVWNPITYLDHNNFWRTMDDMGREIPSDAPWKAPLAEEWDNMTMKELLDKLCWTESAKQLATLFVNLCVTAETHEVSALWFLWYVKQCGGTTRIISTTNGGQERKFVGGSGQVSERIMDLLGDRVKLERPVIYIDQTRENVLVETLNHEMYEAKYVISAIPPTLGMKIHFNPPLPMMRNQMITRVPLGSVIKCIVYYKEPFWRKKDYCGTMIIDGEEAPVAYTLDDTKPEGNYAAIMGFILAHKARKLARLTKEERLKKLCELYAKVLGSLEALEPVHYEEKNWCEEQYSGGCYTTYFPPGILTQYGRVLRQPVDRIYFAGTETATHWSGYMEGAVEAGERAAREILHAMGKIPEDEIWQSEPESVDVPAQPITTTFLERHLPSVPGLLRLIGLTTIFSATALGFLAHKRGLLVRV
quantity name: pIC50
Answers are plain numbers, as −log10 of the molar value.

Recorded pIC50 of O=C1Oc2ccccc2C(=O)/C1=C/NCc1ccccc1 , please. 6.20

###

biological target: Amine oxidase [flavin-containing] A (Homo sapiens); experiment: Inhibition of human MAO-A assessed as inhibition constant using kynuramine as substrate
Sequence (P21397 whole entry): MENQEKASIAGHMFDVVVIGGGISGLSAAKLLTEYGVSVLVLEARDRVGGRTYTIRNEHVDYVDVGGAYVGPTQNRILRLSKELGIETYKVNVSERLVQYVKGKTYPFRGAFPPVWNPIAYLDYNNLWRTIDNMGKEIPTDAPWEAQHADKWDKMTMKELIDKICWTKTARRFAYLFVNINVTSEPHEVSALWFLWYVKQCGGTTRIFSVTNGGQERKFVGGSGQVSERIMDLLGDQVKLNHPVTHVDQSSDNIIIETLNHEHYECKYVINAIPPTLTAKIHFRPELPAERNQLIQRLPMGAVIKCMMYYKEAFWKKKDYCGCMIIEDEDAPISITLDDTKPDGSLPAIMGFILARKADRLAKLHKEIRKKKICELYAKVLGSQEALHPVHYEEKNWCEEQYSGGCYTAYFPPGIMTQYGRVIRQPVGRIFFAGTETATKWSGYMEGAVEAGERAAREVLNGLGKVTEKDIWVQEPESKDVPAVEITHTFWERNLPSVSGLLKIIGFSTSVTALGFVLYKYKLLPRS
quantity name: Ki (nM)
One number for each entry, in nM.

Recorded Ki of COc1cc(/C=C/C(=O)CC(=O)/C=C/c2ccc(O)cc2)ccc1O , please. 910

###

target: Acetylcholinesterase (Homo sapiens); assay: Inhibition of human AChE using acetylcholine as substrate incubated for 5 mins followed by substrate addition by Ellman's method
Sequence (P22303 whole entry): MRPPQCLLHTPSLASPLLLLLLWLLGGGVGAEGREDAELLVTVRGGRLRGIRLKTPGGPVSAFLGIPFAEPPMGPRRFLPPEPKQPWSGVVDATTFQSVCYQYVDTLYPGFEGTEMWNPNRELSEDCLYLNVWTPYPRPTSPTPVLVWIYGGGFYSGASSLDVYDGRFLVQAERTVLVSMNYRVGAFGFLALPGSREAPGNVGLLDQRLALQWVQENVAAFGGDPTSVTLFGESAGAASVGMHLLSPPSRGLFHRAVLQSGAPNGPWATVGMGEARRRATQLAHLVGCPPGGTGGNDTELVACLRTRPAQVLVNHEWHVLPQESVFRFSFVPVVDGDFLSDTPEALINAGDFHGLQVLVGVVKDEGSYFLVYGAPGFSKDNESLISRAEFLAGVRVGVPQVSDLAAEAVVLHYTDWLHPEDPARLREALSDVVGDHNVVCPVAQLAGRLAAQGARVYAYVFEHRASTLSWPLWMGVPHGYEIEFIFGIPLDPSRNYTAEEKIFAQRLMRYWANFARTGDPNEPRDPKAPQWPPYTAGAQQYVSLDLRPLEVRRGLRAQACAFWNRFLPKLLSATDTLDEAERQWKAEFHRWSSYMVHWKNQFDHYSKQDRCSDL
quantity name: IC50 (nM)
Give bare numbers, in nM.

Recorded IC50 of Cc1c(C)c2c(c(C)c1O)CCC(C)(C(=O)NCCC1CCN(Cc3ccccc3F)CC1)O2 (stereo unspecified) , please. 540
